- TARGET_OF_ASSAY: 5-hydroxytryptamine receptor 2C (Homo sapiens, UniProt P28335)
- Sequence (P28335 whole entry): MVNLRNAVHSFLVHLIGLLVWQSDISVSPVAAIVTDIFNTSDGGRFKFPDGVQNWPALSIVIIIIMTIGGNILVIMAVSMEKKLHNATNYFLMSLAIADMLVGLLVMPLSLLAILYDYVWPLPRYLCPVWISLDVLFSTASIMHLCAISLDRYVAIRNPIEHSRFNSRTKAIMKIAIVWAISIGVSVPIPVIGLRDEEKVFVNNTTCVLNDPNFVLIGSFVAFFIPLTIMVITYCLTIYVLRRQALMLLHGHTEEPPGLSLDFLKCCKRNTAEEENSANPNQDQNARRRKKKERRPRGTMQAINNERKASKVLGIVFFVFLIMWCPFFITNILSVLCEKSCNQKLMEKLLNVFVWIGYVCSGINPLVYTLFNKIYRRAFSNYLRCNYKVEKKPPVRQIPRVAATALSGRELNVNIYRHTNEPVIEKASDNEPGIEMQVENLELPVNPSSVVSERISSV
pKi: −log10 of the molar value.
READOUT_LABEL: pKi

MOLECULE	NUMBER
COc1ccccc1N1CCN(CC(O)CCNC(=O)c2ccc(-c3ccccn3)cc2)CC1 (stereo unspecified)	5.40
COc1ccccc1N1CCN(CCCCNC(=O)c2ccc3c(c2)Cc2ccccc2-3)CC1	6.49

(I) O=C(NCC(O)CCN1CCN(c2cccc(Cl)c2Cl)CC1)c1ccc(-c2ccccn2)cc1 (stereo unspecified)
(II) O=C(NCCCCN1CCN(c2cccc(Cl)c2Cl)CC1)c1ccc(-c2ccccn2)cc1
(III) COc1ccccc1N1CCN(CCCCNC(=O)c2ccc(-c3ccccn3)cc2)CC1
(IV) Cc1cccc(-c2ccc(C(=O)NC/C=C/CN3CCN(c4cccc(Cl)c4Cl)CC3)cc2)n1
(V) O=C(NCCCCN1CCN(c2cccc(Cl)c2Cl)CC1)c1ccc2c(c1)Cc1ccccc1-2
Q: Endpoint returns the given molecules ordered by ascending pKi. Order the labels as requested and list them.
A: III, V, IV, II, I
(III: 6.13, V: 6.39, IV: 7.02, II: 7.28, I: 7.60)

(P) O=C(NC[C@H]1C[C@@H]1CN1CCN(c2cccc(Cl)c2Cl)CC1)c1ccc(-c2ccccn2)cc1 (relative stereo)
(Q) O=C(NC[C@H]1C[C@H]1CN1CCN(c2cccc(Cl)c2Cl)CC1)c1ccc(-c2ccccn2)cc1 (relative stereo)
Q: Compare pKi: is it lower for P or for Q ? I would appreciate it if you answered with the label of your choice.
A: Q
(Q: 6.20, P: 7.10)

(a) O=C(NC/C=C/CN1CCN(c2cccc(Cl)c2Cl)CC1)c1ccc(-c2ccccn2)cc1
(b) CC(=O)OC(CCNC(=O)c1ccc(-c2ccccn2)cc1)CN1CCN(c2cccc(Cl)c2Cl)CC1 (stereo unspecified)
Q: Hi, I'm comparing a with b and wondering which one has the bigger number for pKi. Any idea? Answer = label.
A: a
(a: 7.33, b: 7.07)
